Tested on: Escherichia coli TOP10
Test: shrunken log2 fold change of peptide-encoding DNA abundance (4.5 h post-induction vs induction); higher = less antimicrobial activity (less host growth inhibition)
Conditions: time post-induction: 4.5 h; library: site-saturation at positions 5, 18, 19, 20
Below, each entry is listed with its recorded shrunken log2 fold change.
No unit in the answer, please; the number alone is enough.

INSERT INTO measurements (monomer_sequence, numeric_readout) VALUES
  ('RRIRYRPPRLPRPRPRPMHEPRP', -0.405),
  ('RRIRMRPPRLPRPRPRPEDHPRP', 1.29),
  ('RRIRRRPPRLPRPRPRPCPLPRP', 0.262),
  ('RRIRVRPPRLPRPRPRPLSTPRP', -0.0699),
  ('RRIRERPPRLPRPRPRPAQCPRP', -0.0401),
  ('RRIRDRPPRLPRPRPRPPVIPRP', 0.0554),
  ('RRIRFRPPRLPRPRPRPKLVPRP', 0.147);

Next sequence, shrunken log2 fold change to be filled in.
Ask: Please tell me the measured shrunken log2 fold change for RRIRLRPPRLPRPRPRPWMKPRP ; system: Escherichia coli TOP10.
Reply: -0.249

---

Test system: Escherichia coli TOP10
Assay: shrunken log2 fold change of peptide-encoding DNA abundance (4.5 h post-induction vs induction); higher = less antimicrobial activity (less host growth inhibition)
Details: time post-induction: 4.5 h; library: site-saturation at positions 5, 18, 19, 20
Mark MET for reported shrunken log2 fold change of 0.4 or greater; mark NOT MET for anything smaller.

INSERT INTO results (monomer_sequence, label_value) VALUES
  ('RRIRFRPPRLPRPRPRPIIMPRP', 'NOT MET'),
  ('RRIRMRPPRLPRPRPRPSTCPRP', 'NOT MET'),
  ('RRIRQRPPRLPRPRPRPTFWPRP', 'MET');

Now consider the entry below.
Ask: // inclusive: shrunken log2 fold change at least 0.4? input: RRIRTRPPRLPRPRPRPLGRPRP
Reply: MET

---

Test system: Escherichia coli TOP10
Assay: shrunken log2 fold change of peptide-encoding DNA abundance (4.5 h post-induction vs induction); higher = less antimicrobial activity (less host growth inhibition)
Conditions: time post-induction: 4.5 h; library: site-saturation at positions 5, 18, 19, 20
Mark Fulfilled for reported shrunken log2 fold change of 0.06 or greater; mark Not fulfilled for anything smaller.

Ask: // inclusive: shrunken log2 fold change at least 0.06? input: RRIRQRPPRLPRPRPRPCQQPRP
Reply: Not fulfilled

Ask: // inclusive: shrunken log2 fold change at least 0.06? input: RRIRMRPPRLPRPRPRPLRRPRP
Reply: Fulfilled

Ask: // inclusive: shrunken log2 fold change at least 0.06? input: RRIRTRPPRLPRPRPRPACPPRP
Reply: Fulfilled

Ask: // inclusive: shrunken log2 fold change at least 0.06? input: RRIRTRPPRLPRPRPRPHNAPRP
Reply: Not fulfilled

Ask: // inclusive: shrunken log2 fold change at least 0.06? input: RRIRGRPPRLPRPRPRPEDDPRP
Reply: Fulfilled

---

Tested on: Escherichia coli TOP10
Test: shrunken log2 fold change of peptide-encoding DNA abundance (4.5 h post-induction vs induction); higher = less antimicrobial activity (less host growth inhibition)
Details: time post-induction: 4.5 h; library: site-saturation at positions 5, 18, 19, 20
attribute_measured: shrunken log2 fold change

Reference set (5 entries):
INSERT INTO assay_data (monomer_sequence, target_desc, attribute_measured, result) VALUES
  ('RRIRTRPPRLPRPRPRPDLMPRP', 'Escherichia coli TOP10', 'shrunken log2 fold change', -0.121),
  ('RRIRNRPPRLPRPRPRPQKIPRP', 'Escherichia coli TOP10', 'shrunken log2 fold change', -0.22),
  ('RRIRERPPRLPRPRPRPNRVPRP', 'Escherichia coli TOP10', 'shrunken log2 fold change', -0.00226),
  ('RRIRGRPPRLPRPRPRPPRNPRP', 'Escherichia coli TOP10', 'shrunken log2 fold change', 1.1),
  ('RRIRMRPPRLPRPRPRPKMHPRP', 'Escherichia coli TOP10', 'shrunken log2 fold change', 0.42);

Next sequence, shrunken log2 fold change to be filled in.
Ask: Please tell me the measured shrunken log2 fold change for RRIRPRPPRLPRPRPRPLAYPRP ; system: Escherichia coli TOP10.
Reply: -0.074

---

Tested on: Escherichia coli TOP10
Assay: shrunken log2 fold change of peptide-encoding DNA abundance (4.5 h post-induction vs induction); higher = less antimicrobial activity (less host growth inhibition)
Conditions: time post-induction: 4.5 h; library: site-saturation at positions 5, 18, 19, 20
Mark Yes for reported shrunken log2 fold change of -0.04 or greater; mark No for anything smaller.

Study these solved cases before continuing.
INSERT INTO assay_data (monomer_sequence, label_value) VALUES
  ('RRIRIRPPRLPRPRPRPCQMPRP', 'No'),
  ('RRIRMRPPRLPRPRPRPGQDPRP', 'Yes'),
  ('RRIRTRPPRLPRPRPRPGDSPRP', 'Yes'),
  ('RRIRQRPPRLPRPRPRPASIPRP', 'No'),
  ('RRIRARPPRLPRPRPRPILPPRP', 'Yes'),
  ('RRIRSRPPRLPRPRPRPARVPRP', 'Yes'),
  ('RRIRARPPRLPRPRPRPMGAPRP', 'Yes'),
  ('RRIRIRPPRLPRPRPRPYEHPRP', 'No'),
  ('RRIRCRPPRLPRPRPRPPINPRP', 'No'),
  ('RRIRTRPPRLPRPRPRPMGTPRP', 'No');

Ask: // inclusive: shrunken log2 fold change at least -0.04? input: RRIRCRPPRLPRPRPRPRTNPRP
Reply: Yes

---

Below, each entry is listed with its recorded shrunken log2 fold change.
System: Escherichia coli TOP10
Assay: shrunken log2 fold change of peptide-encoding DNA abundance (4.5 h post-induction vs induction); higher = less antimicrobial activity (less host growth inhibition)
Settings: time post-induction: 4.5 h; library: site-saturation at positions 5, 18, 19, 20
No unit in the answer, please; the number alone is enough.

INSERT INTO results (monomer_sequence, numeric_readout) VALUES
  ('RRIRSRPPRLPRPRPRPFKFPRP', -0.438),
  ('RRIRYRPPRLPRPRPRPRTCPRP', -0.134),
  ('RRIRPRPPRLPRPRPRPEIDPRP', -0.0829),
  ('RRIRFRPPRLPRPRPRPGWKPRP', 0.208),
  ('RRIRVRPPRLPRPRPRPSGHPRP', -0.185);

Ask: Give recorded shrunken log2 fold change. RRIRGRPPRLPRPRPRPEVRPRP
Reply: 0.919

Ask: Give recorded shrunken log2 fold change. RRIRSRPPRLPRPRPRPNHHPRP
Reply: -0.566

Ask: Give recorded shrunken log2 fold change. RRIRFRPPRLPRPRPRPEVKPRP
Reply: -0.00444

Ask: Give recorded shrunken log2 fold change. RRIRCRPPRLPRPRPRPHHRPRP
Reply: -0.266

Ask: Give recorded shrunken log2 fold change. RRIRGRPPRLPRPRPRPAISPRP
Reply: 0.296

Ask: Give recorded shrunken log2 fold change. RRIRHRPPRLPRPRPRPWFMPRP
Reply: -0.474

Ask: Give recorded shrunken log2 fold change. RRIRHRPPRLPRPRPRPLSEPRP
Reply: 0.203

Ask: Give recorded shrunken log2 fold change. RRIRQRPPRLPRPRPRPCDGPRP
Reply: -0.26

Ask: Give recorded shrunken log2 fold change. RRIRVRPPRLPRPRPRPPHWPRP
Reply: 0.489

Ask: Give recorded shrunken log2 fold change. RRIRQRPPRLPRPRPRPWGHPRP
Reply: -0.0609

Ask: Give recorded shrunken log2 fold change. RRIRHRPPRLPRPRPRPPCDPRP
Reply: -0.22

---

Tested on: Escherichia coli TOP10;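 also: peptides expressed intracellularly from a pBAD plasmid library in pooled LB shake-flask culture, induced with 0.3% L-arabinose, DNA abundance read by NGS, three biological replicates, DESeq2 with apeglm shrinkage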
Test: shrunken log2 fold change of peptide-encoding DNA abundance (4.5 h post-induction vs induction); higher = less antimicrobial activity (less host growth inhibition)
Conditions: time post-induction: 4.5 h; library: site-saturation at positions 5, 18, 19, 20
attribute_measured: shrunken log2 fold change
No unit in the answer, please; the number alone is enough.

INSERT INTO measurements (monomer_sequence, attribute_measured, numeric_readout) VALUES
  ('RRIRTRPPRLPRPRPRPGDPPRP', 'shrunken log2 fold change', 0.106),
  ('RRIRPRPPRLPRPRPRPYRQPRP', 'shrunken log2 fold change', -0.0384),
  ('RRIRNRPPRLPRPRPRPMHSPRP', 'shrunken log2 fold change', -0.0169),
  ('RRIRSRPPRLPRPRPRPWFTPRP', 'shrunken log2 fold change', -0.253),
  ('RRIRSRPPRLPRPRPRPPHAPRP', 'shrunken log2 fold change', 0.629);

Ask: Give recorded shrunken log2 fold change. RRIRARPPRLPRPRPRPMYLPRP
Reply: -0.506

Ask: Give recorded shrunken log2 fold change. RRIRSRPPRLPRPRPRPWSTPRP
Reply: -0.696

Ask: Give recorded shrunken log2 fold change. RRIRWRPPRLPRPRPRPVIMPRP
Reply: -0.273

Ask: Give recorded shrunken log2 fold change. RRIRARPPRLPRPRPRPMTKPRP
Reply: 0.248

Values compiled from the supplement of paper PMC9112550.
